# METHOD: Rat pharmacokinetics (po and iv) and bioavailability
# Format: in vivo
# CONDITIONS: in vivo, 30 mg/kg, po, 30 mpk
# Description: For this purpose, formulations suitable for peroral administration (po) and intravenous injection (iv) for each compound were first selected to ensure stable PK progression. The formulation was selected under the condition of maintaining a clear solution for more than 1 hour at 10 and 30 mpk doses based on po, and the iv formulation was modified when iv use was not possible based on po (Table 8). […]
Can you tell me Tmax for the items I'm about to list?
Respond with a number, then the unit of measure.

Example entries and their recorded answers appear below.
If you can, please state the reported Tmax value of COc1ccc(CCN(Cc2ccc(N3CC[C@H](C(=O)O)C3)cc2)c2nc3cccc(F)c3s2)cc1 [Compound 25] .
2 h

What value of measured Tmax is listed for COc1ccc(CCN(Cc2ccc(N3CC[C@H](C(=O)O)C3)cc2)c2nc3c(F)c(F)cc(F)c3s2)cc1 [Compound 43] ?
1.67 h

Which measured Tmax value corresponds to COc1ccc(CCN(c2nc3cccc(F)c3s2)C(C)c2cccc(N3CC[C@@H](C(=O)O)C3)c2)cc1 (stereo partly shown) [Compound 41] ?
1 h

Field: next compound
Query: Tmax; subject: COc1ccc(CCN(Cc2ccc(C#CC(=O)O)cc2)c2nc3cccc(F)c3s2)cc1 [Compound C0001, reference compound]
2 h

The measured values listed here are drawn from patent EP4656630A1.
